- assay-name: SK-BR-3 cell growth inhibitors, pilot screen, 24 h, human (AID 572);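 note: compound exposure lasted between 18 and 24 h rather than exactly 24 h; 100% = carrier-treated control wells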
- condition: SK-BR-3 viability, CellTiter-Glo luminescence, at 10 µM, stronger effect = lower value
assay-endpoint: viability (%)
# unit: % | format: bare number

A selection of reference data follows.
{"compound": "COCCCn1c(=N)c(C(=O)NCC2CCCO2)cc2c(=O)n3cccc(C)c3nc21 (stereo unspecified)", "unit-abbrev": "%", "observed-measurement": 62}
{"compound": "c1ccc(OCCCn2nnc(-c3ccncc3)n2)cc1", "unit-abbrev": "%", "observed-measurement": 109}
{"compound": "Cc1ccc(S(=O)(=O)C(C#N)c2nc3ccccc3nc2OC(C)C)cc1 (stereo unspecified)", "unit-abbrev": "%", "observed-measurement": 101}
{"compound": "N#Cc1cnc(SCCc2ccccc2)nc1N", "unit-abbrev": "%", "observed-measurement": 78}
{"compound": "CN(CC(O)COCc1cccs1)C1CCCCC1 (stereo unspecified)", "unit-abbrev": "%", "observed-measurement": 93.5}

Next compound, viability to be filled in.
For CC(=O)OC(C)C[N+](C)(C)C (stereo unspecified) , write its viability. 103

----------
- assay-name: growth suppression of yeast trafficking mutant, preliminary HTS, modulators of trafficking downstream of Golgi apparatus project, 1536-format plate, OD 615 nm (AID 637)
- condition: yeast transport mutant growth, absorbance 615 nm, 18 h
The source made the active and inactive calls. Cut-off read from the data, not from the text of the source: active = inhibition above about 30%; inactive = the rest.
Could you please pick one outcome from this set? label 1 = active, label 0 = inactive

Example entries begin here.
{"compound": "O=C(O)Cn1nc2ccccc2n1", "label-class": "label 0"}
{"compound": "Cc1c(C)n(C(=O)CN2CCN(c3ccccn3)CC2)c2ccccc12", "label-class": "label 0"}
{"compound": "COc1cccc(CN2C(=O)C3(C(C#N)=C(N)OC4=C3C(=O)CCC4)c3ccccc32)c1 (stereo unspecified)", "label-class": "label 1"}
{"compound": "COCCNC(=O)C(c1cccs1)N(C(=O)Cn1nnc2ccccc21)c1ccccc1 (stereo unspecified)", "label-class": "label 0"}
{"compound": "C1=Nc2c(NCc3ccccc3)ncnc2Oc2ccccc21", "label-class": "label 0"}

// param item: O=C(c1cc(-c2ccco2)nn1-c1cccc(Cl)c1)N1CCCCC1 ; yields the recorded call label 0

----------
Here, each record is paired with measured differential viability (reversal) data.
- assay-name: reversal of MRP1-mediated doxorubicin resistance, pilot screen, H69AR cells, doxorubicin co-treatment (AID 601)
- condition: H69AR cells + 2 uM doxorubicin, CellTiter-Glo, 72 h; at 10 µM; stronger effect = higher value
# unit: % | format: bare number

A selection of reference data follows.
{"molecule": "O=C(CSc1nnc(Cc2ccccc2)n1-c1cccc(Cl)c1)N1CCOCC1", "observed-measurement": 4.24}
{"molecule": "CC(=O)Nc1ccn(-c2ccccc2)n1", "observed-measurement": -4.04}
{"molecule": "CN(CC(=O)N1CCCc2c1c(=O)oc1ccc(O)cc21)Cc1ccccc1", "observed-measurement": -3.29}

For CSc1oc(-c2ccccc2)nc1S(=O)(=O)c1ccc(F)cc1 , write its differential viability (reversal). 0.495

For CC(c1ccco1)N(Cc1ccco1)C(=O)Nc1ccccc1 (configuration not stated) , write its differential viability (reversal). 23.7

For Cc1c(C(=O)N2CCN(c3ccccc3)CC2)sc2ncnc(N3CCN(c4ccccc4)CC3)c12 , write its differential viability (reversal). -4.17

For c1cncc(-c2nc3c4ccccc4nc(N4CCC(N5CCCCC5)CC4)n3n2)c1 , write its differential viability (reversal). 2.83

For CC1(C)CC(=O)C(C=NC(CCC(N)=O)C(=O)O)=C(O)C1 (configuration not stated) , write its differential viability (reversal). 8.63
